MEASUREMENT NOTES: DSSTox (CPDBAS) Carcinogenic Potency Database Summary SingleCellCall Results
CONDITION SUMMARY: animal chronic carcinogenicity bioassays, CPDB summary call
Activity calls are given as the source filed them.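 How the source made its calls: active means a tumor-causing dose value with its tumor site reported for any sex and species group of a rodent or other animal cancer study; inconclusive means only studies judged inadequate by the national testing program; inactive means tested in at least one study, none positive.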
Outcomes: active, inactive

# COMPOUND, CATEGORY LABEL
rows = [
    ("C=CC1CC=CCC1 (stereo unspecified)", "active"),
    ("CNCCc1ccc(OC(=O)C(C)C)c(OC(=O)C(C)C)c1", "inactive"),
    ("COc1cc(OC)c2c3c(c(=O)oc2c1)C(=O)CC3", "inactive"),
    ("CCOC(=O)C(O)(c1ccc(Cl)cc1)c1ccc(Cl)cc1", "active"),
    ("CC(O)CO (stereo unspecified)", "inactive"),
    ("CCNC(=O)N(CCN(C)C)N=O", "active"),
    ("C=CN1CCCC1=O", "active"),
    ("CC(=O)c1ccc(S(=O)(=O)NC(=O)NC2CCCCC2)cc1", "inactive"),
    ("NC(=O)N(CC(=O)O)N=O", "active"),
    ("Cc1cccc(N)c1", "active"),
    ("O=C1NCCN1/N=C/c1ccc([N+](=O)[O-])o1", "active"),
    ("Cc1ccc2ccccc2c1", "inactive"),
    ("OC[C@@H](O)[C@@H](O)[C@H](O)[C@H](O)CO[C@H]1O[C@H](CO)[C@@H](O)[C@H](O)[C@H]1O", "inactive"),
    ("Nc1cc([N+](=O)[O-])ccc1C(=O)O", "inactive"),
    ("c1ccc2c(c1)[nH]c1cnccc12", "inactive"),
    ("CCCCOC(=O)c1ccc(O)cc1", "inactive"),
    ("CCN(CC)C(=O)/C(Cl)=C(\\C)OP(=O)(OC)OC", "inactive"),
    ("CC1(C)[C@@H](OC2O[C@H](C(=O)O)[C@@H](O)[C@H](O)[C@H]2O[C@H]2O[C@H](C(=O)O)[C@@H](O)[C@H](O)[C@H]2O)CC[C@]2(C)[C@H]3C(=O)C=C4[C@@H]5C[C@@](C)(C(=O)O)CC[C@]5(C)CC[C@@]4(C)[C@]3(C)CC[C@@H]12 (stereo partly specified)", "inactive"),
    ("CC[C@H]1OC(=O)[C@H](C)[C@@H](O[C@H]2C[C@@](C)(OC)[C@@H](O)[C@H](C)O2)[C@H](C)[C@@H](O[C@@H]2O[C@H](C)C[C@H](N(C)C)[C@H]2O)[C@](C)(O)C[C@@H](C)C(=O)[C@H](C)[C@@H](O)[C@]1(C)O", "inactive"),
    ("COP(=O)(OC)OC", "active"),
    ("CN1[C@@H]2CC(OC(=O)[C@@H](CO)c3ccccc3)C[C@H]1[C@@H]1O[C@@H]12 (stereo partly specified)", "inactive"),
]

src = PubChem BioAssay AID1189
